experiment: Plasma PK, noncompartmental analysis; type: in vivo, human; details: human, plasma, iv, 80 mg/m2, AUCinf, Day 1 (no onalespib), 80 mg/m^2 paclitaxel IV, DL4; geometric mean ± SD
result-type: AUC(0-inf) (µM·h)
A number alone suffices; assume µM·h.

// query Please report the recorded AUC(0-inf) for `CC(=O)O[C@H]1C(=O)[C@@]2(C)[C@H]([C@H](OC(=O)c3ccccc3)[C@]3(O)C[C@H](OC(=O)[C@H](O)[C@@H](NC(=O)c4ccccc4)c4ccccc4)C(C)=C1C3(C)C)[C@]1(OC(C)=O)CO[C@@H]1C[C@@H]2O` .
// result 7.75

---

test: Plasma PK, noncompartmental analysis; type: in vivo, human; settings: human, plasma, intravenous, AUCinf, range, single agent, cycle 1, day –7, all DLs (120 to 260 mg/m^2)
result-type: AUC(0-inf)

// query What value of AUC(0-inf) has been reported for the following compound? CC(C)c1cc(C(=O)N2Cc3ccc(CN4CCN(C)CC4)cc3C2)c(O)cc1O [onalespib]
// result 4.3 to 22.7 µM·h

---

assay: Plasma PK, noncompartmental analysis; format: in vivo, human; settings: human, plasma, iv, 120 mg/m2, t1/2, Day 7 (no paclitaxel), DL1, onalespib 120 mg/m^2 IV; median (range)
result-type: half-life

// query Please give the measured half-life for this compound: CC(C)c1cc(C(=O)N2Cc3ccc(CN4CCN(C)CC4)cc3C2)c(O)cc1O [onalespib]
// result 434 min

---

assay: Plasma PK, noncompartmental analysis; assay type: in vivo, human; details: human, plasma, iv, 120 mg/m2, Cmax, Day 7 (no paclitaxel), DL1, onalespib 120 mg/m^2 IV; geometric mean ± SD
result-type: Cmax (nM)
Numeric answer only, unit nM assumed.

// query Returns the measured Cmax for the input compound. Input: `CC(C)c1cc(C(=O)N2Cc3ccc(CN4CCN(C)CC4)cc3C2)c(O)cc1O`
// result 2800

---

test: Plasma PK, noncompartmental analysis; type: in vivo, human; details: human, plasma, iv, 80 mg/m2, AUCinf, Day 1 (no onalespib), 80 mg/m^2 paclitaxel IV, DL1; geometric mean ± SD
result-type: AUC(0-inf) (µM·h)
Write the number in µM·h without appending the unit.

// query Param item = `CC(=O)O[C@H]1C(=O)[C@@]2(C)[C@H]([C@H](OC(=O)c3ccccc3)[C@]3(O)C[C@H](OC(=O)[C@H](O)[C@@H](NC(=O)c4ccccc4)c4ccccc4)C(C)=C1C3(C)C)[C@]1(OC(C)=O)CO[C@@H]1C[C@@H]2O` ; retrieve measured AUC(0-inf).
// result 7.44

---

assay: Plasma PK, noncompartmental analysis; type: in vivo, human; conditions: human, plasma, iv, 260 mg/m2, AUCinf, Day 7 (no paclitaxel), DL4, onalespib 260 mg/m^2 IV; geometric mean ± SD
result-type: AUC(0-inf) (µM·h)
All answers are understood in µM·h, so give the number only.

// query // lookup AUC(0-inf) for `CC(C)c1cc(C(=O)N2Cc3ccc(CN4CCN(C)CC4)cc3C2)c(O)cc1O`
// result 15.2

---

experiment: Plasma PK, noncompartmental analysis; format: in vivo, human; settings: human, plasma, iv, t1/2, Day 8, 80 mg/m^2 paclitaxel IV with onalespib 200 mg/m^2, DL3; median (range)
result-type: half-life (h)
Lab book: enter the figure in h, no units written.

// query Requested read-out: half-life. Entry: `CC(=O)O[C@H]1C(=O)[C@@]2(C)[C@H]([C@H](OC(=O)c3ccccc3)[C@]3(O)C[C@H](OC(=O)[C@H](O)[C@@H](NC(=O)c4ccccc4)c4ccccc4)C(C)=C1C3(C)C)[C@]1(OC(C)=O)CO[C@@H]1C[C@@H]2O`
// result 8.67

---

test: Plasma PK, noncompartmental analysis; format: in vivo, human; details: human, plasma, iv, AUCinf, Day 8, 80 mg/m^2 paclitaxel IV with onalespib 260 mg/m^2, DL4; geometric mean ± SD
result-type: AUC(0-inf) (µM·h)
Answer in µM·h, number only, no unit symbol.

// query # lookup: AUC(0-inf) of `CC(=O)O[C@H]1C(=O)[C@@]2(C)[C@H]([C@H](OC(=O)c3ccccc3)[C@]3(O)C[C@H](OC(=O)[C@H](O)[C@@H](NC(=O)c4ccccc4)c4ccccc4)C(C)=C1C3(C)C)[C@]1(OC(C)=O)CO[C@@H]1C[C@@H]2O`
// result 8.72

---

test: Plasma PK, noncompartmental analysis; assay type: in vivo, human; conditions: human, plasma, iv, t1/2, Day 8 (with 80 mg/m^2 paclitaxel), DL2, onalespib 150 mg/m^2 IV; median (range)
result-type: half-life (h)
Only the number, expressed in h, is required.

// query Requested field: half-life. Item: `CC(C)c1cc(C(=O)N2Cc3ccc(CN4CCN(C)CC4)cc3C2)c(O)cc1O`
// result 8.55

---

assay: Plasma PK, noncompartmental analysis; type: in vivo, human; details: human, plasma, intravenous, 80 mg/m^2, Mean Cmax, range across DLs, single agent, cycle 1, day 1, 80 mg/m^2
result-type: Cmax

// query State the recorded Cmax for this entry: `CC(=O)O[C@H]1C(=O)[C@@]2(C)[C@H]([C@H](OC(=O)c3ccccc3)[C@]3(O)C[C@H](OC(=O)[C@H](O)[C@@H](NC(=O)c4ccccc4)c4ccccc4)C(C)=C1C3(C)C)[C@]1(OC(C)=O)CO[C@@H]1C[C@@H]2O`
// result 3.87 to 4.68 µM

---

experiment: Plasma PK, noncompartmental analysis; format: in vivo, human; settings: human, plasma, intravenous, mean t1/2, range across DLs, as a single agent only
result-type: half-life

// query What value of half-life has been recorded for this entry: `CC(C)c1cc(C(=O)N2Cc3ccc(CN4CCN(C)CC4)cc3C2)c(O)cc1O`
// result 6.04 to 7.32 h

---

assay: Plasma PK, noncompartmental analysis; type: in vivo, human; conditions: human, plasma, iv, AUCinf, Day 8, 80 mg/m^2 paclitaxel IV with onalespib 200 mg/m^2, DL3; geometric mean ± SD
result-type: AUC(0-inf) (µM·h)
Form entry: value (µM·h) — number only.

// query May I ask what AUC(0-inf) has been recorded for `CC(=O)O[C@H]1C(=O)[C@@]2(C)[C@H]([C@H](OC(=O)c3ccccc3)[C@]3(O)C[C@H](OC(=O)[C@H](O)[C@@H](NC(=O)c4ccccc4)c4ccccc4)C(C)=C1C3(C)C)[C@]1(OC(C)=O)CO[C@@H]1C[C@@H]2O` ?
// result 6.47

---

experiment: Plasma PK, noncompartmental analysis; type: in vivo, human; conditions: Day 1 (no onalespib), 80 mg/m^2 paclitaxel IV, DL3; geometric mean ± SD
result-type: Cmax (µM)
Quick note: give the figure in µM, leave out the unit.

// query Value lookup for Cmax; key = `CC(=O)O[C@H]1C(=O)[C@@]2(C)[C@H]([C@H](OC(=O)c3ccccc3)[C@]3(O)C[C@H](OC(=O)[C@H](O)[C@@H](NC(=O)c4ccccc4)c4ccccc4)C(C)=C1C3(C)C)[C@]1(OC(C)=O)CO[C@@H]1C[C@@H]2O`
// result 4.45

---

assay: Plasma PK, noncompartmental analysis; format: in vivo, human; conditions: human, plasma, iv, AUCinf, Day 8 (with 80 mg/m^2 paclitaxel), DL2, onalespib 150 mg/m^2 IV; geometric mean ± SD
result-type: AUC(0-inf) (µM·h)
Record the value in µM·h, omitting the unit from your answer.

// query Query: AUC(0-inf); subject: `CC(C)c1cc(C(=O)N2Cc3ccc(CN4CCN(C)CC4)cc3C2)c(O)cc1O`
// result 5.64

---

assay: Plasma PK, noncompartmental analysis; type: in vivo, human; conditions: human, plasma, iv, AUCinf, Day 8 (with 80 mg/m^2 paclitaxel), DL3, onalespib 200 mg/m^2 IV; geometric mean ± SD
result-type: AUC(0-inf) (µM·h)
Lab book: enter the figure in µM·h, no units written.

// query For the compound `CC(C)c1cc(C(=O)N2Cc3ccc(CN4CCN(C)CC4)cc3C2)c(O)cc1O` , what AUC(0-inf) is on record?
// result 9.46

---

test: Plasma PK, noncompartmental analysis; type: in vivo, human; conditions: human, plasma, iv, 80 mg/m2, AUCinf, Day 1 (no onalespib), 80 mg/m^2 paclitaxel IV, DL3; geometric mean ± SD
result-type: AUC(0-inf) (µM·h)
Expressed in µM·h, but write only the number.

// query Endpoint output: AUC(0-inf) of CC(=O)O[C@H]1C(=O)[C@@]2(C)[C@H]([C@H](OC(=O)c3ccccc3)[C@]3(O)C[C@H](OC(=O)[C@H](O)[C@@H](NC(=O)c4ccccc4)c4ccccc4)C(C)=C1C3(C)C)[C@]1(OC(C)=O)CO[C@@H]1C[C@@H]2O [paclitaxel] . Value?
// result 6.1

---

test: Plasma PK, noncompartmental analysis; type: in vivo, human; conditions: human, plasma, iv, 80 mg/m2, t1/2, Day 1 (no onalespib), 80 mg/m^2 paclitaxel IV, DL2; median (range)
result-type: half-life (min)
Please reply with the bare figure in min and do not write the unit itself.

// query Can you share its half-life? I mean this molecule: `CC(=O)O[C@H]1C(=O)[C@@]2(C)[C@H]([C@H](OC(=O)c3ccccc3)[C@]3(O)C[C@H](OC(=O)[C@H](O)[C@@H](NC(=O)c4ccccc4)c4ccccc4)C(C)=C1C3(C)C)[C@]1(OC(C)=O)CO[C@@H]1C[C@@H]2O`
// result 551
